- assay.protocol: Oral bioavailability in Wistar Han rat using crystalline form of sample at 1 mg/kg by LC-MS/MS analysis
- Format: ADME, organism-based
- settings: in vivo
parameter: bioavailability (%)
Kindly provide the numeric value in % only, without the unit symbol.

Bench note: what bioavailability did CC(C)(O)c1cc(C(F)(F)F)ncc1-c1ccc(C2(C(=O)Nc3ccc(F)cc3)COC2)cc1 show? 27

----------
- assay.protocol: Half life in Wistar Han rat at 1 mg/kg, po or 0.5 mg/kg, iv by LC-MS/MS analysis
- Format: ADME, organism-based
- settings: in vivo
parameter: half-life (min)
Kindly provide the numeric value in min only, without the unit symbol.

Bench note: what half-life did CC(C)(O)c1cc(C(F)(F)F)ncc1-c1ccc(C2(C(=O)Nc3ccc(F)cc3)COC2)cc1 show? 444

Cited source: ChEMBL document CHEMBL5154775
